target: rA3GR8 (Macaca mulatta (rhesus macaque), UniProt M1GSK9 1-138+=AEAG+147-383, internal_change); assay: EMSA; EMSA: 10 nM 6-FAM RNA, 50 mM HEPES pH 7.5, 250 mM NaCl, 1 mM DTT, 0.4 U/ul RNase inhibitor, 10% glycerol, on ice 10 min, 8% native PAGE at 4 C; details: protein: recombinant; tags: 6xHis-SUMO removed by PreScission protease; label: 6-FAM; single strand
Sequence (M1GSK9 entry or part of it): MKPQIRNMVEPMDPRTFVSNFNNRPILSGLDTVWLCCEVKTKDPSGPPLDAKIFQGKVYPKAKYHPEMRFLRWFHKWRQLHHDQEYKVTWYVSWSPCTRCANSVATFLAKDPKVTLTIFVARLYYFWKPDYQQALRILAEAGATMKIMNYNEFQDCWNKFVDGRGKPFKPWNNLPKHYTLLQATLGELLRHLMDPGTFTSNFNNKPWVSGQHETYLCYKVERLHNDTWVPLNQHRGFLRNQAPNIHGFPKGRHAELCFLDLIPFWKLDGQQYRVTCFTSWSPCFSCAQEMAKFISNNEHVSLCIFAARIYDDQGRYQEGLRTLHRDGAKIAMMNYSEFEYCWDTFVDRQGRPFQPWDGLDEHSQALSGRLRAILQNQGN
Endpoint name: pKd
Numbers only, as −log10 of the molar value.

Past entries and their recorded results:
UUUUGAUUUU (ssRNA) [RNA3-GA] :: 7.33
UUUUAAUUUU (ssRNA) [RNA3-AA] :: 8.00

What value of pKd has been recorded for this entry: UUUUAGUUUU (ssRNA) [RNA3-AG] 6.70
